Entries and their measured pKd follow.
experimental_system: UniProt:Q86UL8
Sequence (Q86UL8 605-683 limits assumed): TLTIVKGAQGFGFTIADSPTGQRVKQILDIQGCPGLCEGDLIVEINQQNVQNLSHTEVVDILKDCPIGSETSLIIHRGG
*1 amine or outer side, *2 acyl side, *3 side chain or, on linkers, in order; H or OH if unused. Where a SMILES comes first, the peptide text is derived from it. The star is where a group is joined. X1 = O=C(CCCC[C@@H]1SC[C@@H]2NC(=O)N[C@@H]21)NCCCOCCOCCOCCCN*; Suc = O=C(CCC(=O)[*:2])[*:1]
Reminder that pKd means the negative base-10 logarithm of the concentration expressed in mol/L.

Worked cases, pKd given:
# molecule, measurement_name, result_value
data = [
    ("CC[C@H](C)[C@H](NC(=O)[C@H](CCC(N)=O)NC(=O)[C@@H](NC(=O)[C@H](Cc1c[nH]cn1)NC(=O)[C@H](CCC(N)=O)NC(=O)[C@H](CC(=O)O)NC(=O)[C@H](CCC(=O)O)NC(=O)[C@H](CC(=O)O)NC(=O)CCC(=O)NCCCOCCOCCOCCCNC(=O)CCCC[C@@H]1SC[C@@H]2NC(=O)N[C@@H]21)[C@@H](C)O)C(=O)N[C@H](C(=O)N[C@@H](CCCNC(=N)N)C(=O)N[C@H](C(=O)O)C(C)C)[C@@H](C)O [PTEN_KR] ({X1-Suc}-DEDQHTQITRV-OH)", "pKd", 4.67),
    ("CC[C@H](C)[C@H](NC(=O)[C@H](CCC(N)=O)NC(=O)[C@@H](NC(=O)[C@H](Cc1c[nH]cn1)NC(=O)[C@H](CCC(N)=O)NC(=O)[C@H](CC(=O)O)NC(=O)[C@H](CCC(=O)O)NC(=O)[C@H](CC(=O)O)NC(=O)CCC(=O)NCCCOCCOCCOCCCNC(=O)CCCC[C@@H]1SC[C@@H]2NC(=O)N[C@@H]21)[C@@H](C)O)C(=O)N[C@H](C(=O)N[C@@H](CCCCNC(C)=O)C(=O)N[C@H](C(=O)O)C(C)C)[C@@H](C)O [PTEN_Ac]", "pKd", 4.82),
    ("CC[C@H](C)[C@H](NC(=O)[C@H](CCC(N)=O)NC(=O)[C@@H](NC(=O)[C@H](Cc1c[nH]cn1)NC(=O)[C@H](CCC(N)=O)NC(=O)[C@H](CC(=O)O)NC(=O)[C@H](CCC(=O)O)NC(=O)[C@H](CC(=O)O)NC(=O)CCC(=O)NCCCOCCOCCOCCCNC(=O)CCCC[C@@H]1SC[C@@H]2NC(=O)N[C@@H]21)[C@@H](C)O)C(=O)N[C@H](C(=O)N[C@@H](CCCCN)C(=O)N[C@H](C(=O)O)C(C)C)[C@@H](C)O [PTEN_11]", "pKd", 4.33),
]

Find pKd for CC[C@H](C)[C@H](NC(=O)[C@H](CCC(N)=O)NC(=O)[C@@H](NC(=O)[C@H](Cc1c[nH]cn1)NC(=O)[C@H](CCC(N)=O)NC(=O)[C@H](CC(=O)O)NC(=O)[C@H](CCC(=O)O)NC(=O)[C@H](CC(=O)O)NC(=O)[C@H](Cc1ccccc1)NC(=O)[C@@H]1CCCN1C(=O)CCC(=O)NCCCOCCOCCOCCCNC(=O)CCCC[C@@H]1SC[C@@H]2NC(=O)N[C@@H]21)[C@@H](C)O)C(=O)N[C@H](C(=O)N[C@@H](CCCCN)C(=O)N[C@H](C(=O)O)C(C)C)[C@@H](C)O [PTEN_13] ({X1-Suc}-PFDEDQHTQITKV-OH) on UniProt:Q86UL8 and write it down.
4.52

* * *

experimental_system: MAGI3 PDZ 2 (Homo sapiens, UniProt Q5TCQ9)
Construct: made in house; host or cells: E. coli
Sequence (Q5TCQ9 410-492 limits assumed): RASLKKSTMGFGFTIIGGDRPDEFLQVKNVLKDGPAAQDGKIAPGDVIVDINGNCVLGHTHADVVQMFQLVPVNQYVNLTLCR
measurement_protocol: Holdup assay, MAGI3-2
Format: binding
condition_set: MAGI3-2
*1 amine or outer side, *2 acyl side, *3 side chain or, on linkers, in order; H or OH if unused. Where a SMILES comes first, the peptide text is derived from it. The star is where a group is joined. X1 = O=C(CCCC[C@@H]1SC[C@@H]2NC(=O)N[C@@H]21)NCCCOCCOCCOCCCN*; Suc = O=C(CCC(=O)[*:2])[*:1]
measurement_name: BI
// return just the number, without any unit appended

Entry CC[C@H](C)[C@H](NC(=O)[C@H](CCC(N)=O)NC(=O)[C@@H](NC(=O)[C@H](Cc1c[nH]cn1)NC(=O)[C@H](CCC(N)=O)NC(=O)[C@H](CC(=O)O)NC(=O)[C@H](CCC(=O)O)NC(=O)[C@H](CC(=O)O)NC(=O)[C@H](Cc1ccccc1)NC(=O)[C@@H]1CCCN1C(=O)CCC(=O)NCCCOCCOCCOCCCNC(=O)CCCC[C@@H]1SC[C@@H]2NC(=O)N[C@@H]21)[C@@H](C)O)C(=O)N[C@H](C(=O)N[C@@H](CCCCN)C(=O)N[C@H](C(=O)O)C(C)C)[C@@H](C)O [PTEN_13] ({X1-Suc}-PFDEDQHTQITKV-OH) needs its BI filled in; supply it.
0.414

Give the reported BI for this molecule. CC[C@H](C)[C@H](NC(=O)[C@H](CCC(N)=O)NC(=O)[C@@H](NC(=O)[C@H](Cc1c[nH]cn1)NC(=O)[C@H](CCC(N)=O)NC(=O)[C@H](CC(=O)O)NC(=O)[C@H](CCC(=O)O)NC(=O)[C@H](CC(=O)O)NC(=O)CCC(=O)NCCCOCCOCCOCCCNC(=O)CCCC[C@@H]1SC[C@@H]2NC(=O)N[C@@H]21)[C@@H](C)O)C(=O)N[C@H](C(=O)N[C@@H](CCCNC(=N)N)C(=O)N[C@H](C(=O)O)C(C)C)[C@@H](C)O [PTEN_KR] ({X1-Suc}-DEDQHTQITRV-OH)
0.445

Give BI for CC[C@H](C)[C@H](NC(=O)[C@H](CCC(N)=O)NC(=O)[C@@H](NC(=O)[C@H](Cc1c[nH]cn1)NC(=O)[C@H](CCC(N)=O)NC(=O)[C@H](CC(=O)O)NC(=O)[C@H](CCC(=O)O)NC(=O)[C@H](CC(=O)O)NC(=O)CCC(=O)NCCCOCCOCCOCCCNC(=O)CCCC[C@@H]1SC[C@@H]2NC(=O)N[C@@H]21)[C@@H](C)O)C(=O)N[C@H](C(=O)N[C@@H](CCCCNC(C)=O)C(=O)N[C@H](C(=O)O)C(C)C)[C@@H](C)O [PTEN_Ac]
0.405

* * *

experimental_system: GORASP2-1 (Homo sapiens)
measurement_protocol: Holdup assay, GORASP2-1
Assay type: binding
condition_set: GORASP2-1
measurement_name: BI
Lab note: write the figure by itself, no unit.

Give reported BI value for "CC[C@H](C)[C@H](NC(=O)[C@H](CCC(N)=O)NC(=O)[C@@H](NC(=O)[C@H](Cc1c[nH]cn1)NC(=O)[C@H](CCC(N)=O)NC(=O)[C@H](CC(=O)O)NC(=O)[C@H](CCC(=O)O)NC(=O)[C@H](CC(=O)O)NC(=O)CCC(=O)NCCCOCCOCCOCCCNC(=O)CCCC[C@@H]1SC[C@@H]2NC(=O)N[C@@H]21)[C@@H](C)O)C(=O)N[C@H](C(=O)N[C@@H](CCCCN)C(=O)N[C@H](C(=O)O)C(C)C)[C@@H](C)O"
0.403

* * *

# Kd listing for each entry below
experimental_system: MAST2 PDZ 1 (Homo sapiens, UniProt Q6P0Q8)
Sequence (Q6P0Q8 1104-1192 limits assumed): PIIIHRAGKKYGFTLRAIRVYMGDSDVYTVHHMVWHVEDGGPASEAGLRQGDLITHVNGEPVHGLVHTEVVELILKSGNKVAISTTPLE
*1 amine or outer side, *2 acyl side, *3 side chain or, on linkers, in order; H or OH if unused. Where a SMILES comes first, the peptide text is derived from it. The star is where a group is joined. X1 = O=C(CCCC[C@@H]1SC[C@@H]2NC(=O)N[C@@H]21)NCCCOCCOCCOCCCN*; Suc = O=C(CCC(=O)[*:2])[*:1]
In your response, put the unit directly after the numeric value.

Worked cases, answers included:
# compound, Kd
records = [
    ("CC[C@H](C)[C@H](NC(=O)[C@H](CCC(N)=O)NC(=O)[C@@H](NC(=O)[C@H](Cc1c[nH]cn1)NC(=O)[C@H](CCC(N)=O)NC(=O)[C@H](CC(=O)O)NC(=O)[C@H](CCC(=O)O)NC(=O)[C@H](CC(=O)O)NC(=O)CCC(=O)NCCCOCCOCCOCCCNC(=O)CCCC[C@@H]1SC[C@@H]2NC(=O)N[C@@H]21)[C@@H](C)O)C(=O)N[C@H](C(=O)N[C@@H](CCCCN)C(=O)N[C@H](C(=O)O)C(C)C)[C@@H](C)O [PTEN_11]", "12.7 µM"),
    ("CC[C@H](C)[C@H](NC(=O)[C@H](CCC(N)=O)NC(=O)[C@@H](NC(=O)[C@H](Cc1c[nH]cn1)NC(=O)[C@H](CCC(N)=O)NC(=O)[C@H](CC(=O)O)NC(=O)[C@H](CCC(=O)O)NC(=O)[C@H](CC(=O)O)NC(=O)CCC(=O)NCCCOCCOCCOCCCNC(=O)CCCC[C@@H]1SC[C@@H]2NC(=O)N[C@@H]21)[C@@H](C)O)C(=O)N[C@H](C(=O)N[C@@H](CCCNC(=N)N)C(=O)N[C@H](C(=O)O)C(C)C)[C@@H](C)O [PTEN_KR] ({X1-Suc}-DEDQHTQITRV-OH)", "6.66 µM"),
    ("CC[C@H](C)[C@H](NC(=O)[C@H](CCC(N)=O)NC(=O)[C@@H](NC(=O)[C@H](Cc1c[nH]cn1)NC(=O)[C@H](CCC(N)=O)NC(=O)[C@H](CC(=O)O)NC(=O)[C@H](CCC(=O)O)NC(=O)[C@H](CC(=O)O)NC(=O)[C@H](Cc1ccccc1)NC(=O)[C@@H]1CCCN1C(=O)CCC(=O)NCCCOCCOCCOCCCNC(=O)CCCC[C@@H]1SC[C@@H]2NC(=O)N[C@@H]21)[C@@H](C)O)C(=O)N[C@H](C(=O)N[C@@H](CCCCN)C(=O)N[C@H](C(=O)O)C(C)C)[C@@H](C)O [PTEN_13] ({X1-Suc}-PFDEDQHTQITKV-OH)", "1.28 µM"),
]

Could you now consider this next compound?
Give Kd for CC[C@H](C)[C@H](NC(=O)[C@H](CCC(N)=O)NC(=O)[C@@H](NC(=O)[C@H](Cc1c[nH]cn1)NC(=O)[C@H](CCC(N)=O)NC(=O)[C@H](CC(=O)O)NC(=O)[C@H](CCC(=O)O)NC(=O)[C@H](CC(=O)O)NC(=O)CCC(=O)NCCCOCCOCCOCCCNC(=O)CCCC[C@@H]1SC[C@@H]2NC(=O)N[C@@H]21)[C@@H](C)O)C(=O)N[C@H](C(=O)N[C@@H](CCCCNC(C)=O)C(=O)N[C@H](C(=O)O)C(C)C)[C@@H](C)O [PTEN_Ac]
4.07 µM
